Just for reference, patent US12760268 is where these values come from.

target: Transferrin receptor 1 (TfR1, CD71), endogenous on cells (Homo sapiens, UniProt P02786 SEQ:89-760); experiment: flow; Jurkat cells, apparent Kd, 4 C; TfR1-independent component present; details: chain copies: 2 (stated homodimer); label: 5'-FAM (with added 5' T), 5'-Cy5 or 5'-biotin; multi-hairpin on stem; G-quadruplex predicted
Sequence (P02786 89-760): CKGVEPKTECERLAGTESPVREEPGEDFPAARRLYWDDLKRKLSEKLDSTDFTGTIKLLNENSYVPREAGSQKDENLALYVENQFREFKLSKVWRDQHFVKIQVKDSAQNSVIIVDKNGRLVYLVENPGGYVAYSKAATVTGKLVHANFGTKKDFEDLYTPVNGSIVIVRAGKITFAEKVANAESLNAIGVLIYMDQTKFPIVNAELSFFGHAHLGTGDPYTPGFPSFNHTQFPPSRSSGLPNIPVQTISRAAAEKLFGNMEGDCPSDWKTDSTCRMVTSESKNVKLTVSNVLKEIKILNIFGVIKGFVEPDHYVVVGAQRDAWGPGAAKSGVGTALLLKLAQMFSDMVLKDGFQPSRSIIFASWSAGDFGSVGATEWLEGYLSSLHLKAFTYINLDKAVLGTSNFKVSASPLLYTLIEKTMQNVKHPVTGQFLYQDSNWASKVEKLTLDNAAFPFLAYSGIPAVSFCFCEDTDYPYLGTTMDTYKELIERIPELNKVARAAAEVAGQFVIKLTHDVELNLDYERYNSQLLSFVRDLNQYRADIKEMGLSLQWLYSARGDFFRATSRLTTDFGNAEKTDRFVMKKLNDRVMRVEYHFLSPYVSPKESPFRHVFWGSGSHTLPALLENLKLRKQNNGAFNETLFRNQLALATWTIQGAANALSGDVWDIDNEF
Measurement Label: pKd
The meaning of pKd here: minus log10 of the concentration in molar units.

Any idea what pKd was measured for tJBA8.1 (ssDNA) DNA: GCAGCAGCGTAAAGGGGGTGTTTGTGCGGTGTGGAGTGCGCGTGCTGCTGC ? 7.96
